Can you tell me shrunken log2 fold change for the items I'm about to list?
system: Escherichia coli TOP10; experiment: shrunken log2 fold change of peptide-encoding DNA abundance (4.5 h post-induction vs induction); higher = less antimicrobial activity (less host growth inhibition); conditions: time post-induction: 4.5 h; library: site-saturation at positions 5, 18, 19, 20
Respond numerically, and do not add a unit to the figure.

Which value of shrunken log2 fold change has been reported for RRIRARPPRLPRPRPRPPLQPRP in the records?
0.557

State the recorded shrunken log2 fold change for this entry: RRIRKRPPRLPRPRPRPCPAPRP
0.17

Could you share which shrunken log2 fold change value was measured for RRIRLRPPRLPRPRPRPPDRPRP ?
0.467

Give its shrunken log2 fold change value. Item: RRIRNRPPRLPRPRPRPRSCPRP
0.763

Need shrunken log2 fold change, item RRIRKRPPRLPRPRPRPPSFPRP
0.288

Endpoint output: shrunken log2 fold change of RRIRVRPPRLPRPRPRPAKVPRP . Value?
0.203

Given the sequence RRIRFRPPRLPRPRPRPIGEPRP , what is its reported shrunken log2 fold change?
0.0336

Query: shrunken log2 fold change; subject: RRIRYRPPRLPRPRPRPRTVPRP
-0.0278

---

system: Escherichia coli TOP10; assay: shrunken log2 fold change of peptide-encoding DNA abundance (4.5 h post-induction vs induction); higher = less antimicrobial activity (less host growth inhibition); settings: time post-induction: 4.5 h; library: site-saturation at positions 5, 18, 19, 20
Observation Type: shrunken log2 fold change
I only need the number, thanks.

I would be grateful if you could share the reported shrunken log2 fold change for RRIRSRPPRLPRPRPRPMTEPRP .
0.0273

Looking for the measured shrunken log2 fold change of RRIRKRPPRLPRPRPRPTPYPRP , can you help?
0.235

Any idea what its shrunken log2 fold change is? The sequence is RRIRLRPPRLPRPRPRPPGGPRP
0.664

Would you mind telling me what shrunken log2 fold change value was observed for RRIRLRPPRLPRPRPRPETVPRP ?
0.0594

Need shrunken log2 fold change of RRIRERPPRLPRPRPRPWSSPRP , thanks.
9.28e-05

Please report the recorded shrunken log2 fold change for RRIRHRPPRLPRPRPRPYNGPRP .
-0.835

Any idea what its shrunken log2 fold change is? The sequence is RRIRWRPPRLPRPRPRPCEQPRP
0.263

Tell me the measured shrunken log2 fold change of RRIRARPPRLPRPRPRPSTDPRP , please.
1.08

Which shrunken log2 fold change value is on record for RRIRYRPPRLPRPRPRPKFGPRP ?
-0.000463

Sample RRIRQRPPRLPRPRPRPGPVPRP — what was its shrunken log2 fold change?
-0.0186

Name the recorded shrunken log2 fold change for RRIRGRPPRLPRPRPRPVAEPRP .
1.38

Quick one: shrunken log2 fold change for RRIRLRPPRLPRPRPRPDAVPRP ?
-0.199

What value of shrunken log2 fold change has been reported for the following sequence? RRIRRRPPRLPRPRPRPAEFPRP
0.0257

---

test system: Escherichia coli TOP10; test: shrunken log2 fold change of peptide-encoding DNA abundance (4.5 h post-induction vs induction); higher = less antimicrobial activity (less host growth inhibition); settings: time post-induction: 4.5 h; library: site-saturation at positions 5, 18, 19, 20
For each entry below, report its shrunken log2 fold change value.
Output: the number by itself.

Report shrunken log2 fold change for RRIRTRPPRLPRPRPRPKPAPRP tested on Escherichia coli TOP10.
0.0421

Please state recorded shrunken log2 fold change (tested on Escherichia coli TOP10) of RRIRNRPPRLPRPRPRPKHIPRP
-0.438

Form entry - test system: Escherichia coli TOP10; read-out: shrunken log2 fold change; sequence: RRIRNRPPRLPRPRPRPNKKPRP
-0.198

Query shrunken log2 fold change on Escherichia coli TOP10 for RRIRVRPPRLPRPRPRPTWYPRP
-0.0971

Can you look up shrunken log2 fold change on Escherichia coli TOP10 for RRIRHRPPRLPRPRPRPHSWPRP ?
-0.0723

Return shrunken log2 fold change measured with Escherichia coli TOP10 given this sequence: RRIRCRPPRLPRPRPRPQLTPRP
-0.147

Field: shrunken log2 fold change (Escherichia coli TOP10). Entry: RRIRGRPPRLPRPRPRPTCSPRP
0.991

Form field: shrunken log2 fold change recorded for RRIRHRPPRLPRPRPRPLMSPRP with Escherichia coli TOP10 (enter value)
-0.196

API: value(readout=shrunken log2 fold change, system=Escherichia coli TOP10) for record RRIRGRPPRLPRPRPRPMPKPRP
0.884

Lookup: shrunken log2 fold change / Escherichia coli TOP10 / RRIRVRPPRLPRPRPRPLNRPRP
-0.328

What is its shrunken log2 fold change for Escherichia coli TOP10? Entry: RRIRVRPPRLPRPRPRPWIIPRP
-0.652

Kindly state the measured shrunken log2 fold change obtained for RRIRNRPPRLPRPRPRPKPYPRP with Escherichia coli TOP10.
-0.342

Recorded shrunken log2 fold change for RRIRFRPPRLPRPRPRPQASPRP with Escherichia coli TOP10, please?
0.0447

---

test system: Escherichia coli TOP10; assay: shrunken log2 fold change of peptide-encoding DNA abundance (4.5 h post-induction vs induction); higher = less antimicrobial activity (less host growth inhibition); details: time post-induction: 4.5 h; library: site-saturation at positions 5, 18, 19, 20
Observation Type: shrunken log2 fold change
The answer should be written as a number, with no unit following it.

What value of shrunken log2 fold change has been recorded for this entry: RRIRPRPPRLPRPRPRPWAYPRP
-0.0727

Returns the measured shrunken log2 fold change for the input sequence. Input: RRIRCRPPRLPRPRPRPESMPRP
0.114

Which shrunken log2 fold change reading was recorded for the sequence RRIRARPPRLPRPRPRPRTAPRP ?
0.844

// shrunken log2 fold change lookup, key: RRIRTRPPRLPRPRPRPYPQPRP
-0.14

Suppose we examine the sequence RRIRKRPPRLPRPRPRPPSWPRP ; what shrunken log2 fold change value has been reported?
0.401

Which value of shrunken log2 fold change has been reported for RRIRIRPPRLPRPRPRPVGCPRP in the records?
0.166

---

system: Escherichia coli TOP10; experiment: shrunken log2 fold change of peptide-encoding DNA abundance (4.5 h post-induction vs induction); higher = less antimicrobial activity (less host growth inhibition); conditions: time post-induction: 4.5 h; library: site-saturation at positions 5, 18, 19, 20
Outcome label depends on shrunken log2 fold change relative to -0.01: at/above gives met, below gives not met.

Hi, just wondering whether RRIRVRPPRLPRPRPRPHRGPRP shows shrunken log2 fold change of -0.01 or higher.
not met

Does the reported shrunken log2 fold change for RRIRQRPPRLPRPRPRPDSHPRP fall at or above the -0.01 mark?
not met

Tell me whether shrunken log2 fold change is at least -0.01 here: RRIRYRPPRLPRPRPRPLDDPRP
not met

Does the reported shrunken log2 fold change for RRIRTRPPRLPRPRPRPAYRPRP fall at or above the -0.01 mark?
not met

Please check the record RRIRWRPPRLPRPRPRPTAPPRP and state if its shrunken log2 fold change is at or above -0.01.
met

Does the sequence RRIRNRPPRLPRPRPRPNEDPRP have recorded shrunken log2 fold change that is -0.01 or more?
met

hey, is shrunken log2 fold change for this one >= -0.01? RRIRARPPRLPRPRPRPMGSPRP
met

Answer whether shrunken log2 fold change of RRIRLRPPRLPRPRPRPCLWPRP is greater than or equal to -0.01.
met

Threshold query (shrunken log2 fold change >= -0.01) on RRIRNRPPRLPRPRPRPHYFPRP
not met

---

system: Escherichia coli TOP10; assay: shrunken log2 fold change of peptide-encoding DNA abundance (4.5 h post-induction vs induction); higher = less antimicrobial activity (less host growth inhibition); conditions: time post-induction: 4.5 h; library: site-saturation at positions 5, 18, 19, 20;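 also: peptides expressed intracellularly from a pBAD plasmid library in pooled LB shake-flask culture, induced with 0.3% L-arabinose, DNA abundance read by NGS, three biological replicates, DESeq2 with apeglm shrinkage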
So I've got a bunch of sequences here, and I need their shrunken log2 fold change values.
Give the value as a plain number.

For RRIRHRPPRLPRPRPRPSQEPRP , what is its reported shrunken log2 fold change?
-0.27

Would you kindly share the measured shrunken log2 fold change for RRIRVRPPRLPRPRPRPKCPPRP ?
0.0181

Which measured shrunken log2 fold change value corresponds to RRIRVRPPRLPRPRPRPWASPRP ?
0.0586

Look at this sequence and give its reported shrunken log2 fold change. RRIRIRPPRLPRPRPRPVKWPRP
-0.0064

Any idea what its shrunken log2 fold change is? The sequence is RRIRWRPPRLPRPRPRPCSWPRP
0.0533

Consider the sequence shown here: RRIRCRPPRLPRPRPRPSVNPRP What is its recorded shrunken log2 fold change?
-0.348

Reported shrunken log2 fold change for RRIRYRPPRLPRPRPRPFNPPRP : what is it?
-0.0161

Returns the measured shrunken log2 fold change for the input sequence. Input: RRIRHRPPRLPRPRPRPKKWPRP
-0.0201

I'd like to know its shrunken log2 fold change. The sequence in question is RRIRQRPPRLPRPRPRPSNFPRP
-0.621

Query: shrunken log2 fold change; subject: RRIRLRPPRLPRPRPRPKMQPRP
0.282

# query: shrunken log2 fold change of entry RRIRCRPPRLPRPRPRPNPIPRP
-0.423

Given the sequence RRIRDRPPRLPRPRPRPTDNPRP , what is its reported shrunken log2 fold change?
-0.5
